Provenance of the data: patent US20150087577A1

# assayed_target: human CXCR4 (human, UniProt P61073 1-352)
# Sequence (P61073 whole entry): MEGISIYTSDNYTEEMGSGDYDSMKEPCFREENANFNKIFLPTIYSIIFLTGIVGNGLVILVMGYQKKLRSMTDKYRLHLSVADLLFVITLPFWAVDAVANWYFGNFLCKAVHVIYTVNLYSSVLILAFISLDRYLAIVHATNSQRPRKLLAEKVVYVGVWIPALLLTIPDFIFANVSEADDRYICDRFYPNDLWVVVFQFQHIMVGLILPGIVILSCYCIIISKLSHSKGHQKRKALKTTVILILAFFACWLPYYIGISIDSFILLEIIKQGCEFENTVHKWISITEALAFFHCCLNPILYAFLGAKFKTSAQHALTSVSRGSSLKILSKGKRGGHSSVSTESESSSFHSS
# experiment_description: cell-based or functional assay
[ ]: non-standard residue; d: D form. 2Nal = N[C@@H](Cc1ccc2ccccc2c1)C(=O)O; Cit = NC(=O)NCCC[C@H](N)C(=O)O
endpoint: IC50 (nM) Ca2+ assay (method 1)
Enter your answer as a number in nM; do not include the unit.

Enquiry: Provide measured IC50 (nM) Ca2+ assay (method 1) value, entry: cyclo(YR[Cit]VRV[dP]RR[2Nal]FY[Cit]K[dP]P) (SMILES CC(C)[C@@H]1NC(=O)[C@H](CCCNC(N)=O)NC(=O)[C@H](CCCNC(=N)N)NC(=O)[C@H](Cc2ccc(O)cc2)NC(=O)[C@@H]2CCCN2C(=O)[C@H]2CCCN2C(=O)[C@H](CCCCN)NC(=O)[C@H](CCCNC(N)=O)NC(=O)[C@H](Cc2ccc(O)cc2)NC(=O)[C@H](Cc2ccccc2)NC(=O)[C@H](Cc2ccc3ccccc3c2)NC(=O)[C@H](CCCNC(=N)N)NC(=O)[C@H](CCCNC(=N)N)NC(=O)[C@H]2CCCN2C(=O)[C@H](C(C)C)NC(=O)[C@H](CCCNC(=N)N)NC1=O) [Example 32]
Return: 760

Enquiry: Provide measured IC50 (nM) Ca2+ assay (method 1) value, entry: cyclo(YR[Cit]FRF[dP]RR[2Nal]VY[Cit]K[dP]P) (SMILES CC(C)[C@@H]1NC(=O)[C@H](Cc2ccc3ccccc3c2)NC(=O)[C@H](CCCNC(=N)N)NC(=O)[C@H](CCCNC(=N)N)NC(=O)[C@H]2CCCN2C(=O)[C@H](Cc2ccccc2)NC(=O)[C@H](CCCNC(=N)N)NC(=O)[C@H](Cc2ccccc2)NC(=O)[C@H](CCCNC(N)=O)NC(=O)[C@H](CCCNC(=N)N)NC(=O)[C@H](Cc2ccc(O)cc2)NC(=O)[C@@H]2CCCN2C(=O)[C@H]2CCCN2C(=O)[C@H](CCCCN)NC(=O)[C@H](CCCNC(N)=O)NC(=O)[C@H](Cc2ccc(O)cc2)NC1=O) [Example 23]
Return: 1550
